Values from paper PMC11564732

- Tested on: mouse-derived preosteoblast cell line MC3T3-E1
- PROTOCOL_SUMMARY: Cytotoxicity evaluation, relative cell metabolic activity (CellTiter-Blue), MC3T3-E1
- Assay type: cell-based
- CONDITION_DETAILS: Mus musculus, MC3T3-E1, 50 µM, 24 h, mean ± SD, read-out: Relative metabolic activity of MC3T3-E1 cells
READOUT_LABEL: viability at 50 µM (%)
Report only the number, with the unit % understood.

- COMPOUND: "CC1CCC2(C(=O)OCP(=O)([O-])[O-])CCC3(C)C(=CCC4C5(C)CCC(=O)C(C)(C)C5CCC43C)C2C1C.[Na+].[Na+] (centres unmarked)"
  REPORTED_VALUE: 94
- COMPOUND: "CC1(C)CC[C@]2(C(=O)O)CC[C@]3(C)C(=CC[C@@H]4[C@@]5(C)CC[C@H](O)C(C)(C)[C@@H]5CC[C@]43C)[C@@H]2C1"
  REPORTED_VALUE: 96
- COMPOUND: "CC1(C)CC[C@]2(C(=O)O)CC[C@]3(C)C(=CC[C@@H]4[C@@]5(C)CCC(=O)C(C)(C)[C@@H]5CC[C@]43C)[C@@H]2C1"
  REPORTED_VALUE: 49

For this compound ( `COc1cccc2c1C(=O)c1c(O)c3c(c(O)c1C2=O)C[C@@](O)(C(=O)CO)C[C@@H]3O[C@H]1C[C@H](N)[C@H](O)[C@H](C)O1` ), measured viability at 50 µM is 53

For this compound ( `C=C(C)[C@@H]1CC[C@]2(COCP(=O)([O-])[O-])CC[C@]3(C)[C@H](CC[C@@H]4[C@@]5(C)CC[C@H](OCP(=O)([O-])[O-])C(C)(C)[C@@H]5CC[C@]43C)[C@@H]12.[Na+].[Na+].[Na+].[Na+]` ), measured viability at 50 µM is 92

====

- Test system: mouse-derived preosteoblast cell line MC3T3-E1
- PROTOCOL_SUMMARY: Cytotoxicity evaluation, relative cell metabolic activity (CellTiter-Blue), MC3T3-E1
- Format: cell-based
- CONDITION_DETAILS: Mus musculus, MC3T3-E1, 10 µM, 24 h, mean ± SD, read-out: Relative metabolic activity of MC3T3-E1 cells
READOUT_LABEL: viability at 10 µM (%)
Report only the number, with the unit % understood.

Previously resolved entries follow.
- COMPOUND: "C[C@H]1[C@H](C)CC[C@]2(C(=O)O)CC[C@]3(C)C(=CC[C@@H]4[C@@]5(C)CC[C@H](O)C(C)(C)[C@@H]5CC[C@]43C)[C@H]12"
  UNIT_ABBREVIATION: "%"
  REPORTED_VALUE: 106
- COMPOUND: "CC1(C)CC[C@]2(C(=O)O)CC[C@]3(C)C(=CC[C@@H]4[C@@]5(C)CCC(=O)C(C)(C)[C@@H]5CC[C@]43C)[C@@H]2C1"
  UNIT_ABBREVIATION: "%"
  REPORTED_VALUE: 110

// next entry
For this compound ( CC1CCC2(C(=O)OCP(=O)([O-])[O-])CCC3(C)C(=CCC4C5(C)CCC(=O)C(C)(C)C5CCC43C)C2C1C.[Na+].[Na+] (stereo not drawn) ), measured viability at 10 µM is 91
